Source of measurements: patent US8541410B2

Target: soluble guanylate cyclase (sGC) (Bos taurus)
Construct: The sGC which was employed had been isolated from bovine lung; from tissue; host or cells: bovine lung
Sequence (P16068 whole entry): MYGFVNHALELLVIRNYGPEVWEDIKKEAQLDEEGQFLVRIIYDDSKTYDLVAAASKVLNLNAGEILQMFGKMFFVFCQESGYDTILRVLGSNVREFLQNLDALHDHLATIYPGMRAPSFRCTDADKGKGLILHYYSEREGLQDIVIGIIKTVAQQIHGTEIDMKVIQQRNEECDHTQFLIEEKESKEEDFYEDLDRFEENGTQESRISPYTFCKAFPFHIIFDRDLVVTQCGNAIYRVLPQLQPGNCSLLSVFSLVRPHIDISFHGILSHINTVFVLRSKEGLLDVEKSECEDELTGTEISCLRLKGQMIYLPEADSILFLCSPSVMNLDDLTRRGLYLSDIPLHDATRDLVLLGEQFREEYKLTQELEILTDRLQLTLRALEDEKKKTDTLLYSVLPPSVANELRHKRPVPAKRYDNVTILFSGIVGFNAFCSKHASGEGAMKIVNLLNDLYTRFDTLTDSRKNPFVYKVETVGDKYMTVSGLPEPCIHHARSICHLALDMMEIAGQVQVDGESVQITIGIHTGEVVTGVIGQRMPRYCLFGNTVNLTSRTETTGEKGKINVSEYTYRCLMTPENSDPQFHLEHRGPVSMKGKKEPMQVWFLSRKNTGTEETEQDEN
Sequence (P19687 whole entry partner): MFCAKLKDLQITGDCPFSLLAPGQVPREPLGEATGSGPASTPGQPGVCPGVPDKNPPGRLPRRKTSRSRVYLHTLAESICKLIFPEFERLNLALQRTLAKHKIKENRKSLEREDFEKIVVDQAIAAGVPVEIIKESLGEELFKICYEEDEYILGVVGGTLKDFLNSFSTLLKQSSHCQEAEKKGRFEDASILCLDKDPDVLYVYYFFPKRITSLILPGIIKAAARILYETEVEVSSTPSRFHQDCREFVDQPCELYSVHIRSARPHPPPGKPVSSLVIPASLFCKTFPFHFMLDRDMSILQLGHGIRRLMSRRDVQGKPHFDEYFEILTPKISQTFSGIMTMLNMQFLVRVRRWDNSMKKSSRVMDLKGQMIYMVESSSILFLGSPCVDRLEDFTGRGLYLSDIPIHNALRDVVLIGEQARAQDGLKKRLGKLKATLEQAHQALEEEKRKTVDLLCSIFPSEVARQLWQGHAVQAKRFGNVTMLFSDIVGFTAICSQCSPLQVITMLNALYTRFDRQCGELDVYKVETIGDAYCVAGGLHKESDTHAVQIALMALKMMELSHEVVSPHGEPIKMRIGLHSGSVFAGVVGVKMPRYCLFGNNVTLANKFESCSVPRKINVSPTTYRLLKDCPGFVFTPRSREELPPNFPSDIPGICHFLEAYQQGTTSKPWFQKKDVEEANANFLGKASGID
Assay: Activation of the soluble guanylate cyclase (cGMP enzyme immunoassay)
Format: biochemical, bovine
Settings: concentration c 50 μM; n-fold stimulation of basal enzyme activity
Experimental: The activation of the soluble guanylate cyclase (sGC) which catalyzes the conversion of guanosine triphosphate (GTP) into cyclic guanosine monophosphate (cGMP) and pyrophosphate, by the compounds according to the invention was quantified with the aid of an enzyme immunoassay (EIA) from Amersham. For this purpose the substances to be tested were initially incubated with sGC in microtiter plates, and the amount of the cGMP formed was then determined. […]
ASSAY READOUT: n-fold stimulation
// return just the number, without any unit appended

// n-fold stimulation (soluble guanylate cyclase (sGC) (Bos taurus)) for CCN(CC)S(=O)(=O)c1ccc(NC(=O)c2cc(Cl)ccc2NS(=O)(=O)c2ccc(Cl)cc2)cc1 [Example 75] = 5.1

Reported n-fold stimulation (soluble guanylate cyclase (sGC) (Bos taurus)) for entry CCCCS(=O)(=O)Nc1ccc(Cl)cc1C(=O)Nc1ccc(S(=O)(=O)N2CCOCC2)cc1 [Example 156] is 7.8

For O=C(Nc1ccc(S(=O)(=O)N2CCOCC2)cc1)c1cc(Cl)ccc1NS(=O)(=O)c1ccc(C(F)(F)F)cc1 [Example 137] on soluble guanylate cyclase (sGC) (Bos taurus), measured n-fold stimulation was 4.6

Noted n-fold stimulation for O=C(Nc1ccc(S(=O)(=O)N2CCOCC2)cc1)c1cc(Cl)ccc1NS(=O)(=O)c1ccc(F)cc1 [Example 146] , tested on soluble guanylate cyclase (sGC) (Bos taurus): 10.2

Known value: soluble guanylate cyclase (sGC) (Bos taurus) n-fold stimulation of the compound O=C(Nc1ccc(S(=O)(=O)N2CCOCC2)cc1)c1cc(Cl)ccc1NS(=O)(=O)c1cc(Br)c(Br)s1 [Example 145] equals 8

// compound COc1cc(NS(=O)(=O)c2ccc(Cl)cc2)c(C(=O)Nc2ccc(S(=O)(=O)N3CCOCC3)cc2)cc1OC [Example 72] , assay soluble guanylate cyclase (sGC) (Bos taurus), n-fold stimulation value: 27

n-fold stimulation of CN1CCN(S(=O)(=O)c2ccc(NC(=O)c3cc(Cl)ccc3NS(=O)(=O)c3ccc(Cl)c(Cl)c3)cc2)CC1 [Example 71] , assay on soluble guanylate cyclase (sGC) (Bos taurus), is 13.4

n-fold stimulation value, target or system soluble guanylate cyclase (sGC) (Bos taurus), for CSc1ccc(NC(=O)c2cc(Cl)ccc2NS(=O)(=O)c2ccc(Cl)cc2)cc1 [Example 23] : 14.7

Measured n-fold stimulation (soluble guanylate cyclase (sGC) (Bos taurus)), entry O=C(Nc1ccc(S(=O)(=O)N2CCOCC2)cc1)c1cc(Cl)ccc1NS(=O)(=O)c1ccc(Cl)c(Cl)c1 [Example 69] : 28.3

soluble guanylate cyclase (sGC) (Bos taurus) n-fold stimulation of COc1cc(NS(=O)(=O)c2ccc(Cl)cc2)c(C(=O)Nc2ccc(S(=O)(=O)N3CCN(C)CC3)cc2)cc1OC [Example 87] is 12.5

Kindly note: soluble guanylate cyclase (sGC) (Bos taurus), O=C(Nc1ccc(S(=O)(=O)N2CCOCC2)cc1)c1cc(Cl)ccc1NS(=O)(=O)c1cccs1 [Example 136] , n-fold stimulation value reported: 24.2

Reported soluble guanylate cyclase (sGC) (Bos taurus) n-fold stimulation for item COc1ccc(S(=O)(=O)Nc2ccc(Cl)cc2C(=O)Nc2ccc(S(=O)(=O)N3CCOCC3)cc2)cc1Cl [Example 148] was 15.5

Entry O=C(Nc1ccc(S(=O)(=O)N2CCSCC2)cc1)c1cc(Cl)ccc1NS(=O)(=O)c1ccc(Cl)cc1 [Example 63] , tested on soluble guanylate cyclase (sGC) (Bos taurus), has a reported n-fold stimulation of 33.9

With soluble guanylate cyclase (sGC) (Bos taurus) as the test system, O=C(Nc1ccc(S(=O)(=O)N2CCOCC2)cc1)c1cc(Cl)ccc1NS(=O)(=O)c1cccc(C(F)(F)F)c1 [Example 157] showed n-fold stimulation of 4.6

Bench note, soluble guanylate cyclase (sGC) (Bos taurus): O=C(Nc1ccc(S(=O)(=O)N2CCSCC2)cc1)c1sccc1NS(=O)(=O)c1ccc(Cl)cc1 [Example 84] , n-fold stimulation reads 23.7

n-fold stimulation of COc1cc(NS(=O)(=O)c2ccc(Cl)cc2)c(C(=O)Nc2ccc(S(=O)(=O)N3CCC(O)CC3)cc2)cc1OC [Example 89] , assay on soluble guanylate cyclase (sGC) (Bos taurus), is 11.6

Form field, n-fold stimulation with soluble guanylate cyclase (sGC) (Bos taurus), item O=C(Nc1ccc(S(=O)(=O)N2CCCCC2)cc1)c1cc(Cl)ccc1NS(=O)(=O)c1ccc(Cl)cc1 [Example 76] : 10.6

Field n-fold stimulation (soluble guanylate cyclase (sGC) (Bos taurus)), entry O=C(Nc1ccc(S(=O)(=O)N2CCOCC2)cc1)c1cc(Cl)ccc1NS(=O)(=O)c1ccc(Cl)s1 [Example 129] : 8.6

// assay soluble guanylate cyclase (sGC) (Bos taurus), entry COCCNS(=O)(=O)c1ccc(NC(=O)c2cc(Cl)ccc2NS(=O)(=O)c2ccc(Cl)cc2)cc1 [Example 77] , n-fold stimulation value = 5.9

Entry COc1cc(NS(=O)(=O)c2ccc(Cl)s2)c(C(=O)Nc2ccc(S(=O)(=O)N3CCSCC3)cc2)cc1OC [Example 206] : n-fold stimulation on soluble guanylate cyclase (sGC) (Bos taurus) = 19.3
